Source of measurements: ChEMBL document CHEMBL1208785

- study target: Neuronal acetylcholine receptor subunit alpha-7 (Rattus norvegicus)
- assay summary: Displacement of [125I]alpha-bungarotoxin from alpha7 nicotinic acetylcholine receptor in rat brain membrane at 10 uM
- Format: cell membranes
Mark Condition not met for inhibition values under 30%, and Condition met for everything at or above.

[Q] Tell me whether inhibition is at least 30% here: `Cc1c(C(=O)NC2CCN(Cc3ccccc3)CC2)cnn1-c1ccc(Cl)cc1`
[A] Condition met

[Q] Does the molecule `CN1CCC(N(C)C(=O)c2cnn(-c3ccccc3-c3ccco3)c2C2CC2)CC1` have recorded inhibition that is 30% or more?
[A] Condition not met

[Q] Dear colleague, could you confirm whether `Cc1c(C(=O)NC2CCN(Cc3ccccc3)CC2)cnn1-c1ccc(F)cc1` has inhibition at or above 30%?
[A] Condition met

[Q] Threshold query (inhibition >= 30%) on `CCCc1c(C(=O)NC2CCNCC2)cnn1-c1ccccc1`
[A] Condition not met

[Q] Could you verify whether the entry `CCCc1c(C(=O)NC2CCN(Cc3ccccc3)CC2)cnn1-c1ccccc1` shows inhibition of no less than 30%?
[A] Condition met

[Q] // inclusive: inhibition at least 30%? input: `O=C(NCC1CCN(CCc2ccccc2)CC1)c1cn(Cc2ccccc2Cl)nn1`
[A] Condition not met

[Q] Would you say `Cc1c(C(=O)N(C)C2CCN(C)CC2)cnn1-c1ccc(Cl)cc1` shows inhibition at minimum 30%?
[A] Condition not met

[Q] # check: inhibition of `COCCN1CCC(CN(C)C(=O)c2cn(Cc3ccccc3Cl)nn2)CC1` is greater than or equal to 30%
[A] Condition met

[Q] # bool: inhibition of `CCCc1c(C(=O)NC2CCN(C)CC2)cnn1-c1ccccc1` >= 30%
[A] Condition not met

[Q] Kindly determine if inhibition recorded for `Cc1ccc(-c2c(C(=O)N(C)C3CCN(C)CC3)cnn2-c2ccccc2)cc1` is above or exactly 30%.
[A] Condition not met

[Q] Is reported inhibition greater than or equal to 30% here: `COc1ccc(Cn2cc(C(=O)NCC3CCN(CCc4ccccc4)CC3)nn2)cc1`
[A] Condition not met

[Q] Tell me whether inhibition is at least 30% here: `O=C(NCC1CCN(C2CCCC2)CC1)c1cn(Cc2ccccc2Cl)nn1`
[A] Condition not met

[Q] Does the reported inhibition for `Cc1ccccc1Cn1cc(C(=O)NCC2CCN(CCc3ccccc3)CC2)nn1` fall at or above the 30% mark?
[A] Condition not met

[Q] Please check the record `COCCN1CCC(CNC(=O)c2cn(Cc3ccc(Cl)cc3)nn2)CC1` and state if its inhibition is at or above 30%.
[A] Condition not met

[Q] Please tell me: is the molecule `O=C(NCC1CCN(Cc2ccccc2)CC1)c1cn(Cc2ccc3ccccc3c2)nn1` at or over 30% in terms of inhibition?
[A] Condition met

[Q] Is the recorded value of inhibition equal to or greater than 30% for this molecule? `CC(C)CN1CCC(CN(C)C(=O)c2cn(Cc3ccccc3Cl)nn2)CC1`
[A] Condition met

[Q] Check the entry `Cc1c(C(=O)N(C)C2CCN(C)CC2)cnn1-c1ccc(F)cc1` : does inhibition equal or exceed 30%?
[A] Condition not met
